Entries and their measured Emax follow.
target: soluble guanylate cyclase (sGC) (Homo sapiens, UniProt Q02108+Q02153); construct: endogenously expressing soluble guanylate cyclase (sGC); endogenous in cells; host or cells: HEK293; experiment: sGC-HEK-cGMP assay (run with SNP incubation); assay type: cell-based; details: Table 3A; top of concentration-response curve not fitted to 100%; 10 μM SNP; 100% = 30 μM BAY 41-2272 with 10 μM SNP; read-out: HEK assay Emax-unconstrained (Percent)
Sequence (Q02153 whole entry): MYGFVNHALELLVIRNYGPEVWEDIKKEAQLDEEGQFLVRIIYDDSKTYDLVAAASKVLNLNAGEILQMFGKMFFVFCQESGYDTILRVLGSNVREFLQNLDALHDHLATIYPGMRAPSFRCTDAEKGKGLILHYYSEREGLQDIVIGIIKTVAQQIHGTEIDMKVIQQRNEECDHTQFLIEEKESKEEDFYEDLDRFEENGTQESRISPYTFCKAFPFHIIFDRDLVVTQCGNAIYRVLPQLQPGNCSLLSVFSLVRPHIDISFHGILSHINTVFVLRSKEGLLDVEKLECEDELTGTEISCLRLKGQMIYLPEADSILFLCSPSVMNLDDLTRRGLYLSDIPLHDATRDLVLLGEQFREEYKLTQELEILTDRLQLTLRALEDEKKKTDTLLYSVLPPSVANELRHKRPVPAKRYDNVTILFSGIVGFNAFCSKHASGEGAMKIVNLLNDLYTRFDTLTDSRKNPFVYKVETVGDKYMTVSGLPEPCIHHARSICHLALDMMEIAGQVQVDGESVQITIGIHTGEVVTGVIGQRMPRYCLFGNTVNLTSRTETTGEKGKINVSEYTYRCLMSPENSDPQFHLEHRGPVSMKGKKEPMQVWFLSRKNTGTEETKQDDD
Sequence (Q02108 whole entry): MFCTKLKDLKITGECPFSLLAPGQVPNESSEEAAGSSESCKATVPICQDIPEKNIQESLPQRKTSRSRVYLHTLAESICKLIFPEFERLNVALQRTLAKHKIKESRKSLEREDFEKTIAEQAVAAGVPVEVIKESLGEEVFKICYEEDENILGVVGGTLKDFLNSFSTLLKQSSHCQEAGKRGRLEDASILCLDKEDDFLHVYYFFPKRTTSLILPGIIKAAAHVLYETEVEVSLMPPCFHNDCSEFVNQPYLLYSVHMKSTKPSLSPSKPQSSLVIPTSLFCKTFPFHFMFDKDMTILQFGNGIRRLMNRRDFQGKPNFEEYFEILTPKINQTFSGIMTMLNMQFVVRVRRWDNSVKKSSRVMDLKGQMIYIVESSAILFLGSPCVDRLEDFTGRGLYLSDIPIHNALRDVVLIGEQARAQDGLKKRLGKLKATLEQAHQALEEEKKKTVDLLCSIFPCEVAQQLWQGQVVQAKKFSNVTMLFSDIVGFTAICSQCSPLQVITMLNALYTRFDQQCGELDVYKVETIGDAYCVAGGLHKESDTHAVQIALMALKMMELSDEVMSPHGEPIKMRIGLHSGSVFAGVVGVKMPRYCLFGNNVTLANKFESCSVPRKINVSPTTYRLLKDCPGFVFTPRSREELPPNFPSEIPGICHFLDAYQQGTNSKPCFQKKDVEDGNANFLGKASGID

| COMPOUND | Emax |
| --- | --- |
| CC1(C(=O)Nc2cnc(-c3cc(-c4ccon4)n(Cc4cccc(F)c4F)n3)nc2N)CC1 [Compound 10] | 100 to 120% |
| Nc1ccnc(-c2cc(-c3ccon3)n(Cc3c(F)ccc(F)c3F)n2)n1 [Compound 15] | 20 to 40% |
| Oc1nc(-c2cc(-c3nccs3)n(Cc3ccccc3F)n2)ncc1F [Compound 44] | 40 to 60% |
| O=c1[nH]c(-c2cc(-c3ccon3)n(Cc3ccccc3F)n2)ncc1S(=O)(=O)N1CCOCC1 [Compound 60] | 80 to 100% |
| Nc1nc(-c2cc(-c3ccon3)n(Cc3cccc(F)c3F)n2)ncc1NC(=O)C1(C(F)(F)F)CC1 [Compound 40] | 80 to 100% |
| NNc1nc(-c2cc(-c3ccon3)n(Cc3ccccc3F)n2)ncc1F [Compound 56] | 60 to 80% |
| Oc1nc(-c2cc(-c3ncco3)n(Cc3ccccc3F)n2)ncc1Sc1ccccc1 [Compound 20] | 40 to 60% |
| Oc1nc(-c2cc(-c3ccon3)n(Cc3cccc(F)c3F)n2)ncc1F [Compound 1] | 60 to 80% |
| CSc1cnc(-c2cc(-c3ccon3)n(Cc3ccccc3F)n2)nc1O [Compound 29] | 40 to 60% |
| CN(Cc1ccccc1)S(=O)(=O)c1cnc(-c2cc(-c3ccon3)n(Cc3ccccc3F)n2)[nH]c1=O [Compound 16] | 60 to 80% |
| CN(c1ccccc1)S(=O)(=O)c1cnc(-c2cc(-c3ccon3)n(Cc3ccccc3F)n2)[nH]c1=O [Compound 25] | 60 to 80% |
| Oc1nc(-c2cc(-c3ccon3)n(Cc3ccccc3F)n2)ncc1Sc1ccc(Cl)cc1 [Compound 6] | 60 to 80% |
| Nc1nc(-c2cc(-c3ccon3)n(Cc3ccccc3F)n2)ncc1NC(=O)C1(c2ccc(F)cc2)CC1 [Compound 13] | 80 to 100% |
| CN(C1CC1)S(=O)(=O)c1cnc(-c2cc(-c3ccon3)n(Cc3ccccc3F)n2)[nH]c1=O [Compound 14] | 40 to 60% |
| Oc1nc(-c2cc(-c3ccon3)n(Cc3ccccc3F)n2)ncc1Sc1ccc(F)cc1 [Compound 4] | 60 to 80% |
| O=c1[nH]c(-c2cc(-c3ccon3)n(Cc3cccnc3F)n2)ncc1F [Compound 67] | 20 to 40% |
| Nc1nc(-c2cc(-c3ncco3)n(Cc3ccccc3F)n2)ncc1NC(=O)C1(F)CC1 [Compound 31] | 80 to 100% |
| CC(C)(CC(F)(F)F)C(=O)Nc1cnc(-c2cc(-c3ccon3)n(Cc3ccccc3F)n2)nc1N [Compound 53] | 60 to 80% |
| Nc1nc(-c2cc(-c3ccon3)n(Cc3ccccc3F)n2)ncc1NC(=O)C1(c2ccccc2F)CC1 [Compound 9] | 60 to 80% |
| Nc1nc(-c2cc(-c3ccon3)n(Cc3ccccc3F)n2)ncc1NC(=O)C1(c2ccccc2)CC1 [Compound 27] | 80 to 100% |
| N#CC1(C(=O)Nc2cnc(-c3cc(-c4ccon4)n(Cc4cccc(F)c4F)n3)nc2N)CC1 [Compound 36] | 40 to 60% |
| CC1(C(=O)Oc2cnc(-c3cc(-c4ccon4)n(Cc4ccccc4F)n3)nc2N)CC1 [Compound 5] | 80 to 100% |
| COc1ccc(C2(C(=O)Nc3cnc(-c4cc(-c5ccon5)n(Cc5ccccc5F)n4)nc3N)CC2)cc1 [Compound 12] | 60 to 80% |
| Oc1nc(-c2cc(-c3ccon3)n(Cc3ccccc3F)n2)ncc1-c1ccccn1 [Compound 43] | 40 to 60% |
| Oc1nc(-c2cc(-c3cocn3)n(Cc3ccccc3F)n2)ncc1F [Compound 48] | 60 to 80% |
| Fc1ccccc1Cn1nc(-c2ncc(F)c(Cl)n2)cc1-c1ccon1 [Compound 30] | 60 to 80% |
| Oc1nc(-c2cc(-c3ccon3)n(Cc3ccccc3F)n2)ncc1-c1nccs1 [Compound 42] | 40 to 60% |
| Nc1nc(-c2cc(-c3ccon3)n(Cc3ccccc3F)n2)ncc1NC(=O)C1(F)CC1 [Compound 35] | 80 to 100% |
| CC1(C(=O)Nc2cnc(-c3cc(-c4ncco4)n(Cc4ccccc4F)n3)nc2N)CC1(F)F (stereo not drawn) [Compound 55] | 100 to 120% |
| Oc1nc(-c2cc(-c3ccon3)n(Cc3ccccc3F)n2)ncc1Sc1ccccn1 [Compound 18] | 60 to 80% |
| O=c1[nH]c(-c2cc(-c3ccon3)n(Cc3ccccc3F)n2)ncc1S(=O)(=O)N1CCCC1 [Compound 21] | 60 to 80% |
| O=c1[nH]c(-c2cc(-c3ccon3)n(Cc3ccccc3F)n2)nc(Cl)c1Cl [Compound 54] | 40 to 60% |
| N#CC1(C(=O)Nc2cnc(-c3cc(-c4ncco4)n(Cc4ccccc4F)n3)nc2N)CC1 [Compound 47] | 100 to 120% |
